System: S. pneumoniae
Test: Kill or inhibit growth/proliferation; morphology, biofilm and growth disruption (Tables 5, 6); further: test concentration or dose not given here
Format: cell-based, Streptococcus pneumoniae
Set-up: key: A: Peptide aggregates; B: Less hyphal formation; Clumps; Diffuse clumps and small polyps; F: Diffuse growth; H: Thin; I: Growth inhibition; Microcolony formation; Rippled; Small polyps; Thick; W: Halo formation on top, microlonies on bottom
Ends that are not written are not given here.

[
  {
    "Substance": "LNFRAENKILEKIHISLIDTVEGSA [PF-575]",
    "Organism, effect": "S. pneumoniae (A)"
  },
  {
    "Substance": "MQIFYIKTKIFLSFFLFLLIFSQCFYKIEE [PF-442]",
    "Organism, effect": "S. pneumoniae (C)"
  },
  {
    "Substance": "YIQFHLNQQPRPKVKKIKIFL-NH2 [PF-531]",
    "Organism, effect": "S. pneumoniae (C)"
  },
  {
    "Substance": "HKNKLNIPHIKS [PF-477]",
    "Organism, effect": "S. pneumoniae (H)"
  },
  {
    "Substance": "PF-626: peptide having multiple activities (KYDFDDFEPEEA; Peptide with targeting and/or antimicrobial activity)",
    "Organism, effect": "S. pneumoniae (H)"
  },
  {
    "Substance": "VMQSLYVKPPLILVTKLAQQN [PF-511]",
    "Organism, effect": "S. pneumoniae (H)"
  },
  {
    "Substance": "PF-612: peptide having multiple activities (GTTLKYGLERQLKIDIHPEITIINLNGGADEFAKL; Peptide with targeting and/or antimicrobial activity)",
    "Organism, effect": "S. pneumoniae (C)"
  },
  {
    "Substance": "PF-578: peptide having multiple activities (chain 1 QKANLRIGFTYTSDSNVCNLTFALLGSK; chain 2 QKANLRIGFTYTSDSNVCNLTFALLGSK; Peptide with targeting and/or antimicrobial activity)",
    "Organism, effect": "S. pneumoniae (D)"
  },
  {
    "Substance": "PF-421: peptide having multiple activities (KHCFEITDKTDVV; Peptide with targeting and/or antimicrobial activity)",
    "Organism, effect": "S. pneumoniae (H)"
  },
  {
    "Substance": "PF-610: peptide having multiple activities (VFLKLKTSKIDLASIIFYP; Peptide with targeting and/or antimicrobial activity)",
    "Organism, effect": "S. pneumoniae (D)"
  },
  {
    "Substance": "PF-175: peptide having multiple activities (RRRPAGQRPEKASQAMIAA; Peptide with targeting and/or antimicrobial activity)",
    "Organism, effect": "S. pneumoniae (A)"
  }
]
